compounds and their reported AC50
Target: Prostaglandin G/H synthase 1 (Rattus norvegicus, UniProt Q63921); note: assay procedure not described here
Sequence (Q63921 whole entry): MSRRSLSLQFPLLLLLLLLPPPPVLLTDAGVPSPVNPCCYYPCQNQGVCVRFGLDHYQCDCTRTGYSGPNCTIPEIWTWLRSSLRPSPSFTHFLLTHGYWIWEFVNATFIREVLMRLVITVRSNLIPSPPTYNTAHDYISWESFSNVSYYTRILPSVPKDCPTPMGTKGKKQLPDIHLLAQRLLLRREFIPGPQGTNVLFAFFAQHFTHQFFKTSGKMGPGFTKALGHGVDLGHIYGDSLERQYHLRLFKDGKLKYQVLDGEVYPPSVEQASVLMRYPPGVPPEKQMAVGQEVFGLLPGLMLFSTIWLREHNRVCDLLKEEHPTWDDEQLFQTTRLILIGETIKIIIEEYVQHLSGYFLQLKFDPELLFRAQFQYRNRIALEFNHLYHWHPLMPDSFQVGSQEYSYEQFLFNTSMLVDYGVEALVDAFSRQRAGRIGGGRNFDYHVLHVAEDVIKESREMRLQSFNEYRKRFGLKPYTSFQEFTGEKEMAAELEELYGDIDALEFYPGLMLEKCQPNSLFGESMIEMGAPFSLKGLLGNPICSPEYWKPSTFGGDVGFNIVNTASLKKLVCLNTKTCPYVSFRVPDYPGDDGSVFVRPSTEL
Format: functional

{"compound": "C[C@]12C=CC(=O)N[C@@H]1CC[C@@H]1[C@@H]2CC[C@]2(C)[C@@H](C(=O)Nc3cc(C(F)(F)F)ccc3C(F)(F)F)CC[C@@H]12 [DUTASTERIDE]", "system.name": "Prostaglandin G/H synthase 1 (Rattus norvegicus, UniProt Q63921)", "AC50": "> 10 µM"}
{"compound": "COc1cc2ncnc(Nc3ccc(F)c(Cl)c3)c2cc1NC(=O)/C=C/CN1CCCCC1 [DACOMITINIB ANHYDROUS]", "system.name": "Prostaglandin G/H synthase 1 (Rattus norvegicus, UniProt Q63921)", "AC50": "> 30 µM"}
{"compound": "CC(C(=O)O)c1ccc2c(c1)[nH]c1ccc(Cl)cc12 (configuration not stated)", "system.name": "Prostaglandin G/H synthase 1 (Rattus norvegicus, UniProt Q63921)", "AC50": "> 30 µM"}
{"compound": "[H]/N=C(/N)N/C(=N/[H])NCCc1ccccc1", "system.name": "Prostaglandin G/H synthase 1 (Rattus norvegicus, UniProt Q63921)", "AC50": "> 30 µM"}

Given item `Cc1noc(NS(=O)(=O)c2ccc(N)cc2)c1C` , the value recorded as its AC50 is > 10 µM

Field AC50 (entry CCC(=O)O[C@]1(C(=O)SCF)[C@H](C)C[C@H]2[C@@H]3C[C@H](F)C4=CC(=O)C=C[C@]4(C)[C@@]3(F)[C@@H](O)C[C@@]21C [FLUTICASONE PROPIONATE] ) reads > 30 µM

Kindly note the recorded AC50 for `N[C@@H](CC(=O)N1CCn2c(nnc2C(F)(F)F)C1)Cc1cc(F)c(F)cc1F` , which is > 30 µM

====

Target: Cannabinoid receptor 1 (Homo sapiens); note: assay procedure not described here
Sequence (P21554 whole entry): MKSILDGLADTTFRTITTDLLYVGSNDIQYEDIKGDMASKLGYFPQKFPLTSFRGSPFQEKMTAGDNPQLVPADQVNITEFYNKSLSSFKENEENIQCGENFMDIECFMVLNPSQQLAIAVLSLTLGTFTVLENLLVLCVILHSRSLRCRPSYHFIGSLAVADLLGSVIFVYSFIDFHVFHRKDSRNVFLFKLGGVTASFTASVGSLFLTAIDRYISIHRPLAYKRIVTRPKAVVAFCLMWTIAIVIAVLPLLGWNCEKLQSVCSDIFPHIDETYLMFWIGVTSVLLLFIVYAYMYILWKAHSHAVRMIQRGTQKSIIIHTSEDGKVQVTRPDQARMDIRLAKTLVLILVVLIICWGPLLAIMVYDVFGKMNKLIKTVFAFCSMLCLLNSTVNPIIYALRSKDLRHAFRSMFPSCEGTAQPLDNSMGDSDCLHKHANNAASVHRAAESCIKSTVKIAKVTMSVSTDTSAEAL
AC50 listing for selected molecules.

{"molecule": "CC1=C(C)C(=O)C(C(CCCCCC(=O)O)c2ccccc2)=C(C)C1=O (stereo unspecified)", "endpoint.result": "> 30 µM"}
{"molecule": "CCOC(=O)O[C@]1(C(=O)OCCl)CC[C@H]2[C@@H]3CCC4=CC(=O)C=C[C@]4(C)[C@H]3[C@@H](O)C[C@@]21C [LOTEPREDNOL ETABONATE]", "endpoint.result": "> 30 µM"}
{"molecule": "CCN(CC)CCN1C(=O)CN=C(c2ccccc2F)c2cc(Cl)ccc21", "endpoint.result": "> 10 µM"}
{"molecule": "C=CCNc1nc(NCC=C)nc(N2CCN(C(c3ccc(F)cc3)c3ccc(F)cc3)CC2)n1", "endpoint.result": "> 30 µM"}
{"molecule": "Cc1cc2cc3c(C)cc(=O)oc3c(C)c2o1", "endpoint.result": "> 10 µM"}

So for CCCCCC(=O)O[C@]1(C(C)=O)CC[C@H]2[C@@H]3CCC4=CC(=O)CC[C@]4(C)[C@H]3CC[C@@]21C [HYDROXYPROGESTERONE CAPROATE] , the logged AC50 turned out to be > 30 µM

Value of AC50 reported for the molecule COc1ccccc1OCCNCC(O)COc1cccc2[nH]c3ccccc3c12 (stereo unspecified) is > 10 µM

// AC50 value for `Nc1ncn([C@H]2C[C@H](O)[C@@H](CO)O2)c(=O)n1` : > 30 µM
